Measurement target: T1, Human ST2 (human, UniProt Q01638 19-328, limits assumed)
T1 construct: also called human ST2 protein; Interleukin 1 receptor-like 1
T1 sequence (looked up): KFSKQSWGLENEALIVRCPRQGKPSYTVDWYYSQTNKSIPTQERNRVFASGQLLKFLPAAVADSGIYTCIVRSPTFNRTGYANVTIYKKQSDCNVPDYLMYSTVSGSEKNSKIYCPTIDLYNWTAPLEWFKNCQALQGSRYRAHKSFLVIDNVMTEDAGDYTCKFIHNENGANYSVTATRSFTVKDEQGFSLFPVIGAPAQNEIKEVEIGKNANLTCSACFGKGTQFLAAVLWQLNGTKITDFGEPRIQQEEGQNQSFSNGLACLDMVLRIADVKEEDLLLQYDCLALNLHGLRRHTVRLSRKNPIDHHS
Experimental details: SPR (Carterra), antibody immobilized, ST2 analyte
koff overview
Reply numerically in s⁻¹, unit not repeated.

Answered examples (5):
Human ST2 IgG1 Antibody 51 (antibody, V domains shown, IgG1; also called ST2 Antibody 51) VH: QVQLVQSGAEVKKPGSSVKVSCKASGGSFSRSSISWVRQAPGQGLEWMGGIIPIFGAPVYAQDLQGRVTITADESTSTAYMELSSLRSEDTAVYYCARDHPHCSSTSCYYGMDVWGQGTTVTVSS VL: EIVMTQSPATLSVSPGERATLSCRASQTISSSYLAWYQQKPGQAPRLLIYGASTRATGIPARFSGSGSGTEFTLTISSLQSEDFAVYYCQQYGSSPLTFGGGTKVEIKR
0.043
Human ST2 IgG1 Antibody 43 (antibody, V domains shown, IgG1; also called ST2 Antibody 43) VH: QVQLVQSGAQVKKPGASVKVSCKASGYTFSSYYIHWVRQAPGQGLEWMGWINPHSGGTNYGQEFQGRVTMTRDTSTSTVYMELSSLRSEDTAVYYCARDSSGMGATIGYWGQGTLVTVSS VL: DIQMTQSPSSLSASVGDRVTITCRASQSVNRRLAWYQQKPGKAPKLLIYAASTLQSGVPSRFSGSGSGTDFTLTISSLQPEDFATYYCQQGNSFPITFGQGTKVEIKR
0.0074
Human ST2 IgG1 Antibody 12 (antibody, V domains shown, IgG1; also called ST2 Antibody 12) VH: QVQLVQSGAEVKKPGASVKVSCKASGYTFTGYYMHWVRQAPGQGLEWMGIIDPSGGGTSYAQKFQGRVTMTRDTSTSTVYMELSSLRSEDTAVYYCAKDIVVVPAAIANYYYGMDVWGQGTTVTVSS VL: DIQMTQSPSSLSASVGDRVTITCRVSQGISNYLNWYQQKPGKAPKLLIYGASTLQSGVPSRFSGSGSGTDFTLTISSLQPEDFATYYCQQSYSTPWTFGPGTKVDIKR
0.024
Human ST2 IgG1 Antibody 42 (antibody, V domains shown, IgG1; also called ST2 Antibody 42) VH: QVQLVQSGAEVKKPGASVKVSCKASGYTFNSHWVHWVRQAPGQGLEWMGWISAYNGNTNYAQKLQGRVTMTRDTSTSTVYMELSSLRSEDTAVYYCASGDYPYYYYGMDVWGQGTTVTVSS VL: DIQMTQSPSSLSASVGDRVTITCRASQGVANWLAWYQQKPGKAPKLLIYSASNLQSGVPSRFSGSGSGTDFTLTISSLQPEDFATYYCQQSSSFPLTFGQSTRLEIKR
0.088
Human ST2 IgG1 Antibody 29 (antibody, V domains shown, IgG1; also called ST2 Antibody 29) VH: QVQLVQSGAEVKKPGASVKVSCKASGGTFTGYFIHWVRQAPGQGLEWMGWMNPNSGNTGYAQKFQGRVTMTRDTSTSTVYMELSSLRSEDTAMYYCAREGQGVVPVDYWGQGTLVTVSS VL: DIQMTQSPSSLSASVGDRVTITCRASQSISSWLAWYQQKPGKAPKLLIYDATNLETGVPSRFSGSGSGTDFTLTISSLQPEDFATYYCLQDYNYPLTFGQSTKVEIKR
0.0065

Give the measured koff of Human ST2 IgG1 Antibody 76 (antibody, V domains shown, IgG1; also called ST2 Antibody 76) VH: QVQLVQSGAEVKKPGSSVKVSCKASGYTFTDYYMHWVRQAPGQGLEWMGVIIPVLGAAKYAQKFQGRVTITADESTSTAYMELSSLRSEDTAVYYCAKGWGAFDIWGQGTMVTVSS VL: EIVMTQSPATLSVSPGERATLSCRASQSVSSYLAWYQQKPGQAPRLLIYGASTRASGIPARFSGSGSGTEFTLTISSLQSEDFAVYYCQQYYSYPWTFGQGTKVEIKR .
0.11

And for Human ST2 IgG1 Antibody 65 (antibody, V domains shown, IgG1; also called ST2 Antibody 65) VH: QVQLVQSGAEVKKPGSSVKVSCKASGGTFSSYAISWVRQAPGQGLEWMGGIIPIFGTANYAQKFQGRVTITADESTSTAYMELSSLRSEDTAVYYCARDNPDFDYWGQGTLVTVSS VL: DIQMTQSPSSLSASVGDRVTITCRASQGISNYLNWYQQKPGKAPKLLIYAASSLQSGVPSRFSGSGSGTDFTLTISSLQPEDFATYYCQQSYRTPITFGQGTRLEIKR ?
0.055

And for Human ST2 IgG1 Antibody 67 (antibody, V domains shown, IgG1; also called ST2 Antibody 67) VH: QVQLVQSGAEVKKPGASVKVSCKASGGTFSSYAISWVRQAPGQGLEWMGRINPNSGGTVYAQKFQGRVTMTRDTSTSTVYMELSSLRSEDTAVYYCARDTSIAARLNPDYYYYYGMDVWGQGTTVTVSS VL: DIQMTQSPSSLSASVGDRVTITCRASQSISSWLAWYQQKPGKAPKLLIYAASNLQSGVPSRFSGSGSGTDFTLTISSLQPEDFATYYCQQSYSTPVTFGQSTRLEIKR ?
0.1

And for Human ST2 IgG1 Antibody 10 (antibody, V domains shown, IgG1; also called ST2 Antibody 10) VH: QVQLVQSGAEVKKPGSSVKVSCKASGGTFGYYAISWVRQAPGQGLEWMGGIIPMVGTGQYAQEFQGRVTITADESTSTAYMELSSLRSEDTAVYYCAGVEVGATRGYFQHWGQGTLVTVSS VL: DIVMTQSPLSLPVTPGEPASISCRSSQSLLHSNGYNYLDWYLQKPGQSPQLLIYAASTLQSGVPDRFSGSGSGTDFTLKISRVEAEDVGVYYCMQGTHWPTTFGQGTRLEIKR ?
0.079

And for Human ST2 IgG1 Antibody 15 (antibody, V domains shown, IgG1; also called ST2 Antibody 15) VH: QVQLVQSGAEVKKPGSSVKVSCKASGGTFSSYAISWVRQAPGQGLEWMGGIIPMFGTTNYAQKFQGRVTITADESTSTAYMELSSLRSEDTAVYYCATVAAAGPNWYFDLWGRGTLVTVSS VL: DIQMTQSPSSLSASVGDRVTITCQASQGISNYLNWYQQKPGKAPKLLIYAASTLQSGVPSRFSGSGSGTDFTLTISSLQPEDFATYYCQQSYSTPPTFGQGTKVEIKR ?
0.14

The reported numbers originate from patent US20210403579A1.
